experiment: Pharmacokinetic study of R/S OXY and DEO enantiomers, transdermal oxybutynin gel (Example 20); format: in vivo, human; details: single-dose topical 84 mg OXY gel, abdominal area, normalized to 84 mg, mean ± SD, N = 10
Readout: AUC0-120
Hi, when you answer, please include the unit after the number. Thanks!

Q) Recorded AUC0-120 for CCN(CC)CC#CCOC(=O)[C@@](O)(c1ccccc1)C1CCCCC1 , please?
A) 246.0 ± 96.7 ng·h/mL

Q) Recorded AUC0-120 for CCNCC#CCOC(=O)[C@](O)(c1ccccc1)C1CCCCC1 , please?
A) 269.5 ± 132.8 ng·h/mL

Q) Recorded AUC0-120 for CCNCC#CCOC(=O)[C@@](O)(c1ccccc1)C1CCCCC1 , please?
A) 285.5 ± 152.9 ng·h/mL

Next:
Q) Recorded AUC0-120 for CCN(CC)CC#CCOC(=O)[C@](O)(c1ccccc1)C1CCCCC1 , please?
A) 151.1 ± 56.0 ng·h/mL

All values here come from patent US20080260842A1.
